Where do the numbers come from? From patent US11702475B2.

Listed next: entries and their corresponding Percent monomer.
Assay: Analytical size exclusion chromatography (percent monomer)
Assay type: physicochemical
Conditions: NEM-conjugated cysteine variants; SEC, Abs280 monomer region 5.5-6 minutes vs oligomer region 4-5.3 minutes
Lab book: enter the figure in %, no units written.

Solved cases below.
molecule	scale-unit	Percent monomer
R54C: cysteine variant of P54AR4-83v2 (SEQ ID NOS: 205 and 243); NEM and VC-MMAF conjugates (conjugate, NEM or vcMMAF conjugate; EGFR binding FN3 domain, NEM and VC-MMAF conjugates) MLPAPKNLVVSEVTEDSARLSWDDPWAFYESFLIQYQESEKVGEAIVLTVPGSECSYDLTGLKPGTEYTVSIYGVHNVYKDTNMRGLPLSAIFTT	%	96
P2C (conjugate, left off: small tags and cut ends) LCAPKNLVVSEVTEDSARLSWDDPWAFYESFLIQYQESEKVGEAIVLTVPGSERSYDLTGLKPGTEYTVSIYGVHNVYKDTNMRGLPLSAIFTT	%	86

Query: Fill blank: measured Percent monomer of the molecule H75C (conjugate, left off: small tags and cut ends) LPAPKNLVVSEVTEDSARLSWDDPWAFYESFLIQYQESEKVGEAIVLTVPGSERSYDLTGLKPGTEYTVSIYGVCNVYKDTNMRGLPLSAIFTT is ____.
Response: 100
